These entries and their values trace back to patent EP0452101B1.

- TESTED_ON: M2 muscarinic receptors (Rattus norvegicus, UniProt P10980)
- Construct: displacing from rat brain homogenates, cerebellum or frontal cortex; from tissue; host or cells: rat cerebellum homogenates
- Sequence (P10980 whole entry): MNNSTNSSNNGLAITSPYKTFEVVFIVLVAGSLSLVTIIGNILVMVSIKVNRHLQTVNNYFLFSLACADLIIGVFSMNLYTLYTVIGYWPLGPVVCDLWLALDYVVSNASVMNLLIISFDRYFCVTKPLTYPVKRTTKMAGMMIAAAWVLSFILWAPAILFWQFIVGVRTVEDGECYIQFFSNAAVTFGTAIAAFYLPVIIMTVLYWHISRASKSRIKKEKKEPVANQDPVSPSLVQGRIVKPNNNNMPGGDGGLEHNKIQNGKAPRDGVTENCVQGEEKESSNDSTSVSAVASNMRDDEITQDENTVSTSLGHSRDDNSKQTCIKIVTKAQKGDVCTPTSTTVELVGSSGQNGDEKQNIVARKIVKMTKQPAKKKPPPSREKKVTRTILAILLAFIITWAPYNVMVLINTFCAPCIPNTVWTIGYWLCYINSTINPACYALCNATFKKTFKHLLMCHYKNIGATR
- PROCEDURE_SUMMARY: Displacement of 3H-QNB from rat cerebellum, 50 mM phosphate buffer
- Type: binding
- CONDITION_DETAILS: cerebellum, Table 5; read-out: 3H-QNB-Binding KH2 (c)
Catalogue of Ki readings, one per entry.
Field format: number, assumed µM, no unit text.

{"columns": ["MOLECULE", "QUANTITY_UNIT", "Ki"],
 "data": [
  ["CC1=NCC2(CCN(C)CC2)O1", "µM", 4.9]
]}

Now look at this entry.
Enquiry: Report Ki for c1ccc(C2=NCC3(CN4CCC3CC4)O2)cc1 (centres unmarked) please.
Return: 1.37
